Tested on: TK-10 renal
Test: NCI-60 one-dose screen, 48 h (100 = growth as untreated, 0 = no growth, -100 = all killed)
Conditions: 10 µM unless noted
About 83,000 compounds went through this panel and 20% of them were active in at least one assay; those are over-represented in the sample as a whole.
REPORTED_METRIC: growth (%)
Give bare numbers, in %.

Known growth results, listed for orientation:
| MOLECULE | growth / % |
| --- | --- |
| CC(=O)Nc1ccc(NC(C)=O)c2c1C(=O)c1ccccc1C2=O | 92.6 |
| O=C(/C=C/C(=O)c1ccccc1)c1ccccc1 | 86.9 |
| CCn1c(=O)n(C)c2c(=O)n(C)c(=O)n(C)c21 | 102 |

Your task in this section: give growth for each listed record.
1. O=C1OC(=O)C2C1C1(Cl)C(Cl)=C(Cl)C2(Cl)C2C(=O)OC(=O)C21 (configuration not stated)
2. CC1CCC(C(=O)O)N1 (configuration not stated)
3. CCOC(=O)c1cc2cccc(OC)c2oc1=O
4. O=C1OC[C@H]2[C@H](c3ccc(O)c(O)c3)c3cc(O)c(O)cc3C[C@H]12

Solution:
1. 93
2. 101
3. 110
4. 118

// input: 7 molecules below; output: growth for each
1. CCOC(=O)Nc1cc2c(c(N)n1)N=C(c1ccccc1)CO2
2. NC(CSC(c1ccccc1)(c1ccccc1)c1ccccc1)C(=O)O (configuration not stated)
3. CCCCC/C=N/Nc1nc(C)cc(=O)[nH]1
4. COc1ccc(C2(O)CCCCC2)cc1
5. CC(=O)OCC1OC(OC2=C(CC=C(C)C)C(=O)c3ccccc3C2=O)C(OC(C)=O)C(OC(C)=O)C1OC(C)=O (configuration not stated)
6. OC1CCCc2ccccc21 (configuration not stated)
7. NC(=O)N/N=C\c1ccco1

Solution:
[53.3, 59.3, 108, 113, 87.4, 86.4, 100]

// each listed molecule needs a value for growth
1. NC(=O)c1ccc(N=C(N)N=C(N)N)cc1
2. NC(N)=Nc1cc2ccccc2c2ccccc12
3. CCCCCCCCCCCCCCCCC1CC(=O)OC1=O (configuration not stated)
4. COc1ccccc1NC(=O)c1cc2cc(Br)ccc2cc1O
5. Cc1cc(C)c(N)c(S(=O)(=O)O)c1
6. NC(C(=O)O)c1ccc([N+](=O)[O-])cc1 (configuration not stated)
7. Cc1cc(C)cc(NCCC#N)c1
8. COCCOCCCl

Solution:
[77.5, 105, 107, 39.8, 105, 156, 129, 102]

Please supply growth for each of the following items, keeping them in order.
1. O=C(c1ccc(O)cc1)c1ccc(O)cc1
2. CCOC(=O)/C(=C/c1ccc(OC)cc1)N(CC)CC
3. O=c1cc(-c2ccccc2)nc2cc(-c3ccco3)[nH]n12
4. Clc1ccc(-c2nnc(-c3cccc4ccccc34)o2)cc1
5. CN(C)C(C)(C)CC(C)(C)C

Solution:
1: 95; 2: 107; 3: 124; 4: 95.3; 5: 143

---

System: SK-MEL-28 melanoma
Assay: NCI-60 one-dose screen, 48 h
Conditions: 10 µM
Compounds without any hit were thinned out: in the full panel of roughly 83,000, 20% have a hit. Activity calls are given as the source filed them. The calls were made as follows: active = growth percent below 10; inactive = the rest.
Parameter call: string, one of true (1) = active, false (0) = inactive

| COMPOUND | ASSIGNED_CLASS |
| --- | --- |
| O=C1C=C(O)C(=O)C=C1O | false (0) |
| CC(C(=O)O)(C1CCCCC1)C1(O)CCCCC1 (stereo not given) | false (0) |
| Cc1ncc(C#N)c(N)n1 | false (0) |

Exercise: Which outcome was assigned to "c1c(-c2cc(C3CC3)[nH]n2)n[nH]c1C1CC1" in this test?
Solution: false (0)

Exercise: Dear all, I need the recorded test outcome for "O=[N+]([O-])c1ccc(N=Nc2ccc(O)c3ccccc23)cc1" , thank you.
Solution: false (0)

Exercise: Hi, sorry to bother you, what did the test record for "C[C@@H](c1ccccc1)[C@@H](C(=O)O)c1ccccc1" ?
Solution: false (0)

Exercise: # outcome recorded in this test, key = "Cc1ccc(O)c(C(=O)c2ccccc2)c1"
Solution: false (0)

Exercise: Could you please tell me the result logged for "COc1cccc(COC(=O)Nc2ccccc2)c1OC" in this assay?
Solution: false (0)
